Test system: U2OS
Experiment: Multiplex assay against U2OS
Format: toxicity, cell-based
Conditions: human, 24 h, 10 µM, compound concentration 10 uM, replicate 2
# maps each entry to its Population Mitochondria Different-Phenotype (%)
# value in %; strip the unit string

Field: example entries. Status: answers known.
CCCSc1nc(N[C@@H]2C[C@H]2c2ccc(F)c(F)c2)c2nnn([C@@H]3C[C@H](OCCO)[C@@H](O)[C@H]3O)c2n1 | 97
CCc1ccc(OCc2ccccc2C(=O)Nc2ccc3nc(C)cc(N)c3c2)cc1.Cl | 94
C=CC(=O)Nc1cccc(Sc2nc(Nc3ccc(N4CCN(C)CC4)cc3)ncc2Cl)c1 | 15

Then this compound:
stdin: Which Population Mitochondria Different-Phenotype (%) reading was recorded for the compound CNC(=O)Nc1ccc(-c2nc(N3CC4CCC(C3)O4)c3cnn(C4CCC5(CC4)OCCO5)c3n2)cc1 ?
stdout: 84
